Target: EPS15 121-215, P42566
Sequence (P42566 121-215): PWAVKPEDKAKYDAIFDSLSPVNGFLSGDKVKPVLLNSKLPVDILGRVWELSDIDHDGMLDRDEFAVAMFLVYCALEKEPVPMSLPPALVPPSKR
metric-name: selected by phage display

Below, 5 binders whose answers are already recorded.
>>> df
                                binder         recorded_value
0    YSNNPFWNGVQTNPFL [SH3BP4, Q9P0V3]  confidence 2 (active)
1     EFGPENPFRTQQMAAP [CDC40, O60508]  confidence 4 (active)
2   TPLMNPFRLENVTVSE [TMEM114, B3SHH9]  confidence 4 (active)
3   NPFNTPHLQLVHDGLG [SLC25A3, Q00325]  confidence 2 (active)
4  NPFLPSDSSKTSELHS [KIAA1549, Q9HCM3]  confidence 2 (active)

selected by phage display lookup needed for NPFTPDSLLLHSSGQA [WEE1, P30291] , thanks.
confidence 4 (active)

selected by phage display lookup needed for NPFSVSNPNPLLPSPA [RBM20, Q5T481] , thanks.
confidence 2 (active)
